Entries and their measured pIC50 follow.
- tgt: KRAS (G13D)::SOS1 (Homo sapiens, UniProt P01116, C118S/G13D)
- Construct: KRAS (G13D) 1-169, N-terminal 6His-tag for purification, cleaved off; 6His-tag (N, cleaved yes); TEV cleavage site
- Sequence (P01116 1-169 isoform P01116-2 G13D/C118S): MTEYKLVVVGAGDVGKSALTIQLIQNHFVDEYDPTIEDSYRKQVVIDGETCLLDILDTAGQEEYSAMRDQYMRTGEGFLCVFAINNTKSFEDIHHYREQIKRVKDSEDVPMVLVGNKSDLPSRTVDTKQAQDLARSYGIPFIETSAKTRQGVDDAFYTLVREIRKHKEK
- test: KRAS::SOS1 AlphaScreen binding assay, KRAS G13D
pIC50: −log10 of the molar value.

| compound | pIC50 |
| --- | --- |
| COc1c(OCC2(N(C)C)COC2)nc(-c2noc3c2CCC[C@@]32CCCc3sc(N)c(C#N)c32)nc1O[C@@H](C)[C@@H]1CCCN1C [II-25] | 8.10 |
| C[C@H](Oc1cc(OCC2(N(C)C)COC2)nc(-c2onc3c2CCC[C@@]32CCCc3sc(N)c(C#N)c32)n1)[C@@H]1CCCN1C [Example I-8] | 8.10 |
| C[C@H](Oc1cc(OCC2(N(C)C)COC2)nc(-c2noc3c2CCC[C@@]32CCCc3sc(N)c(C#N)c32)n1)[C@@H]1CCCN1C [II-22] | 8.22 |
